- SYSTEM_UNDER_TEST: recombinant PI3K δ enzyme (Homo sapiens (Human))
- ASSAY_SUMMARY: In vitro enzyme assay (Kinase-Glo luminescent kinase assay), PI3Kδ
- Format: biochemical
Entries whose IC50 is below 50 nM take Condition met; entries at or above 50 nM take Condition not met.

Previously resolved entries follow.
Cn1cc(-c2nc(N3CCOCC3)c3nc(C(=O)N4CCC(c5ccccc5)CC4)[nH]c3n2)cn1 [compound 35] : Condition met
O=C(c1nc2c(N3CCOCC3)cc(-c3cn[nH]c3)nc2[nH]1)N1CCC(N2CCOCC2)CC1 [compound 133] : Condition met
Cc1c(-c2nc3[nH]c(C(=O)N4CCC(N5CCOCC5)CC4)nc3c(N3CCOCC3)c2F)cnn1C [compound 95] : Condition not met
Cc1nn(C)cc1-c1nc(N2CCOCC2)c2nc(C(=O)NCC3(CO)COC3)[nH]c2n1 [compound 71] : Condition met
Cn1cc(-c2nc(N3CCOCC3)c3nc(C(=O)N4CCN5C(=O)COC[C@H]5C4)[nH]c3n2)cn1 [compound 6] : Condition met

Qu. Lab log: compare recorded IC50 with 50 nM; is it strictly lower for Cn1cc(-c2nc(N3CCOCC3)c3nc(C(=O)N4CCC(N5CCOCC5)CC4)n(C)c3n2)cn1 [compound 23] ?
Ans. Condition not met

Qu. Lab note: confirm whether the reported IC50 for this compound is below 50 nM, equality not counting. compound: Cn1cc(-c2nc3[nH]c(C(=O)N4CC(N5CCOCC5)C4)nc3c(N3CCOCC3)c2F)cn1 [compound 126]
Ans. Condition met

Qu. Lab note: IC50 threshold 50 nM. Does this compound come in strictly under it? Cn1cc(-c2nc(N3CCOCC3)c3nc(C(=O)NC4CCCCC4)[nH]c3n2)cn1 [compound 33]
Ans. Condition not met

Qu. Here's an entry: Cn1cc(-c2nc(N3CCOCC3)c3nc(C(=O)N4CCS(=O)(=O)CC4)[nH]c3n2)cn1 [compound 15] . Is its IC50 below 50 nM?
Ans. Condition not met

Qu. Say whether its IC50 is strictly beneath 50 nM. Entry: Cn1cc(-c2nc3[nH]c(C(=O)N4CCN5C(=O)COC[C@H]5C4)nc3c(N3CCOCC3)c2F)cn1 [compound 80]
Ans. Condition not met

Qu. Problem: For the compound Cn1cc(-c2nc(N3CCOCC3)c3nc(C(=O)N4CCC(NS(C)(=O)=O)CC4)[nH]c3n2)cn1 [compound 28] , is IC50 under 50 nM?
Ans. Condition not met

Qu. Criterion: IC50 strictly below 50 nM. Is it met by Cn1cc(-c2nc(N3CCOCC3)c3nc(C(=O)N4CC[C@H](O)C4)[nH]c3n2)cn1 [compound 62] ?
Ans. Condition not met

Qu. Report whether reported IC50 is lower than 50 nM (strictly) for Cn1cc(-c2cc(N3CCOCC3)c3nc(C(=O)N4CCC(N5CCOCC5=O)CC4)[nH]c3n2)cn1 [compound 77]
Ans. Condition met

Qu. # check: IC50 < 50 nM for CN(C)[C@H]1CCN(C(=O)c2nc3c(N4CCOCC4)nc(-c4cnn(C)c4)nc3[nH]2)C1 [compound 44]
Ans. Condition not met

Qu. Is the reported IC50 for Cc1nn(C)cc1-c1cc(N2CCOCC2)c2nc(C(=O)N3CCC(N4CCOCC4)CC3)[nH]c2n1 [compound 94] strictly below 50 nM?
Ans. Condition met

Qu. Lab log: compare recorded IC50 with 50 nM; is it strictly lower for Cc1nn(C)cc1-c1nc2[nH]c(C(=O)N3CCC(O)CC3)nc2c(N2CCOCC2)c1F [compound 86] ?
Ans. Condition met

Qu. Find out if reported IC50 for Cc1nn(C)c(C)c1-c1nc2[nH]c(C(=O)N3CCC(N4CCOCC4)CC3)nc2c(N2CCOCC2)c1F [Compound No. 93] is less than 50 nM
Ans. Condition met

Qu. Lab log: compare recorded IC50 with 50 nM; is it strictly lower for C[C@@H]1CN(C2CCN(C(=O)c3nc4c(N5CCOCC5)cc(-c5cnn(C)c5)nc4n3C)CC2)C[C@H](C)O1 [compound 110] ?
Ans. Condition not met

Qu. Criterion: IC50 strictly below 50 nM. Is it met by Cc1nn(C)cc1-c1nc2c(nc(C(=O)N3CCC(C(C)(C)O)CC3)n2C)c(N2CCOCC2)c1F [compound 107] ?
Ans. Condition not met

Qu. Consider the compound Cn1cc(-c2nc(N3CCOCC3)c3nc(C(=O)N4CCC[C@H](N5CCOCC5)C4)[nH]c3n2)cn1 [compound 13] . Is its IC50 strictly less than 50 nM?
Ans. Condition not met

Qu. Determine whether this compound shows IC50 lower than 50 nM (ties excluded): Cn1cc(-c2nc(N3CCOCC3)c3nc(C(=O)N4CC(O)C4)[nH]c3n2)cn1 [compound 4]
Ans. Condition met

Qu. Dear reviewer, please state whether Cn1cc(-c2nc3[nH]c(C(=O)N4CCC5(CC4)COC5)nc3c(N3CCOCC3)c2F)cn1 [compound 79] has IC50 strictly beneath 50 nM.
Ans. Condition met

Qu. Strictly below 50 nM: is that where IC50 of Cc1nn(C)cc1-c1nc2[nH]c(C(=O)N3CCC(N(C)C)CC3)nc2c(N2CCOCC2)c1F [compound 97] sits?
Ans. Condition met

Qu. Does the reported IC50 of O=C(c1nc2c(N3CCOCC3)cc(-c3c[nH]nc3C(F)(F)F)nc2[nH]1)N1CCC(N2CCOCC2)CC1 [compound 134] stay below 50 nM?
Ans. Condition met

Qu. Report whether reported IC50 is lower than 50 nM (strictly) for Cn1cc(-c2nc(N3CCOCC3)c3nc(C(=O)N4CCN(S(C)(=O)=O)CC4)[nH]c3n2)cn1 [compound 34]
Ans. Condition not met

* * *

Recorded below: pIC50, system PI3Kα (Homo sapiens (Human), UniProt P42336).
Answers are plain numbers, as −log10 of the molar value.

Worked cases, pIC50 given:
Cc1nn(C)cc1-c1nc2[nH]c(C(=O)N3CCC(N(C)C)CC3)nc2c(N2CCOCC2)c1F : 5.97
O=C(c1nc2c(N3CCOCC3)nc(-c3c[nH]nc3C(F)(F)F)nc2[nH]1)N1CCC(N2CCOCC2)CC1 : 5.39
Cc1nn(C)cc1-c1nc(N2CCOCC2)c2nc(C(=O)N3CCN(C(C)(C)C(N)=O)CC3)[nH]c2n1 : 5.19

Qu. Return reported pIC50; argument: Cn1cc(-c2cc(N3CCOCC3)c3nc(C(=O)N4CCC5(CC4)COC5)[nH]c3n2)cn1
Ans. 5.66

* * *

- SYSTEM_UNDER_TEST: recombinant PI3K δ enzyme (Homo sapiens (Human), UniProt O00329)
- Sequence (O00329 whole entry, species assumed): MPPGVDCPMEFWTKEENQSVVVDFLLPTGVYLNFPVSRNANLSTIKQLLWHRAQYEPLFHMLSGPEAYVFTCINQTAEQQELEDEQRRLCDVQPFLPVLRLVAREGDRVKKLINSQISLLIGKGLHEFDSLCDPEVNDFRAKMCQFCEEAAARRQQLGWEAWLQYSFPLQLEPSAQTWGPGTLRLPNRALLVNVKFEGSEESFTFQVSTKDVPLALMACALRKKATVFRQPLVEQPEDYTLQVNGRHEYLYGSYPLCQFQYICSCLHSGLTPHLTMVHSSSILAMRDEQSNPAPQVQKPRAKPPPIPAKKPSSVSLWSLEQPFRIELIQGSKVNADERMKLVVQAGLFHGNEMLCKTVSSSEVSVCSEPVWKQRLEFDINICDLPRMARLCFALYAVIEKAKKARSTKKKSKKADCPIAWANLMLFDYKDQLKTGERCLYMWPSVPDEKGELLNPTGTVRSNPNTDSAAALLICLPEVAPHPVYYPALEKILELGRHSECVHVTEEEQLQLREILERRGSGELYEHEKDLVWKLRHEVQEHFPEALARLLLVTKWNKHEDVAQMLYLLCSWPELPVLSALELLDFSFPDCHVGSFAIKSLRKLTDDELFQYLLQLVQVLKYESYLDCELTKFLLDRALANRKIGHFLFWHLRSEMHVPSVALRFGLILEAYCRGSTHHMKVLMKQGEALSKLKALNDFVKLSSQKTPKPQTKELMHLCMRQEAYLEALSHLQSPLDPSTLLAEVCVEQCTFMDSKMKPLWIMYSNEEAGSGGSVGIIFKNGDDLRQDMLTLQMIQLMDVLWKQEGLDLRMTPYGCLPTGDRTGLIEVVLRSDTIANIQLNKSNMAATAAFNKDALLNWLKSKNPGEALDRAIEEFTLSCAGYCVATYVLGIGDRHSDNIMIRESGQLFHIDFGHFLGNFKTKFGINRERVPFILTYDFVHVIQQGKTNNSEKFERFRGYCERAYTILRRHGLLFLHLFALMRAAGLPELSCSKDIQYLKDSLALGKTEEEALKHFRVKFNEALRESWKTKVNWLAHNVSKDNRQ
- Sequence (P27986 whole entry partner, species assumed): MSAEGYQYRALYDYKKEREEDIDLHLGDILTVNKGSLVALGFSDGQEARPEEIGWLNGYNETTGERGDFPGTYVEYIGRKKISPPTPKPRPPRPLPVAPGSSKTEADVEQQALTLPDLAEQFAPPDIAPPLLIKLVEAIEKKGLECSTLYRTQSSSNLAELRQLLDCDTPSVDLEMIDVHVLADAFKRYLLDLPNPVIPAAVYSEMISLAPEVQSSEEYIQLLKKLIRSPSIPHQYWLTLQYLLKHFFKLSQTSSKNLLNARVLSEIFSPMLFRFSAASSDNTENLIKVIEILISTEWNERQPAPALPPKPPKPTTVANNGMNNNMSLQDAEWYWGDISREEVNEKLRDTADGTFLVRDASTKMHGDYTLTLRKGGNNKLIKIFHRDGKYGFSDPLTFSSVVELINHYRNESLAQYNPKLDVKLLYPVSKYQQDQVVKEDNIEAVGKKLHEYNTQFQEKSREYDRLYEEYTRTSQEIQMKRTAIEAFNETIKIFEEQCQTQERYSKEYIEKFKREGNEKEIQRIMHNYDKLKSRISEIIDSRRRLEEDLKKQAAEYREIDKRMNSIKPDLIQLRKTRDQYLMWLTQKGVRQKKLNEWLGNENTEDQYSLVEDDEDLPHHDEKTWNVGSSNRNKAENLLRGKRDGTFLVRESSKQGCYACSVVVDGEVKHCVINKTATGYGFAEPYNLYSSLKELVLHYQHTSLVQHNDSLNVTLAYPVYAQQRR
- ASSAY_SUMMARY: In vitro enzyme assay (Kinase-Glo luminescent kinase assay), PI3Kδ
- Assay type: biochemical
pIC50: −log10 of the molar value.
Rule: pIC50 under 7 gives f, otherwise t.

Cn1cc(-c2nc(N3CCOCC3)c3nc(C(=O)N4CCN(C(=O)OC(C)(C)C)CC4)[nH]c3n2)cn1 [compound 43] : t

Qu. Quick check, pIC50 >= 7? Cn1cc(-c2cc(N3CCOCC3)c3nc(C(=O)N4CCN(C5CCOCC5)CC4)[nH]c3n2)cn1 [compound 135]
Ans. t

Qu. Please check the record Cn1cc(-c2cc(N3CCOCC3)c3nc(C(=O)NCCCN4CCOCC4)[nH]c3n2)cn1 [compound 115] and state if its pIC50 is at or above 7.
Ans. t

Qu. Could you tell me if the measured pIC50 of Cn1cc(-c2nc(N3CCOCC3)c3nc(C(=O)NCC4CCCCC4)[nH]c3n2)cn1 [compound 36] reaches 7 or more?
Ans. t

Qu. Is the recorded value of pIC50 equal to or greater than 7 for this molecule? Cn1cc(-c2nc(N3CCOCC3)c3nc(C(=O)NCCCN4CCOCC4)[nH]c3n2)cn1 [compound 63]
Ans. t

Qu. Dear colleague, could you confirm whether CC(=O)N[C@H]1CCN(C(=O)c2nc3c(N4CCOCC4)nc(-c4cnn(C)c4)nc3[nH]2)C1 [compound 37] has pIC50 at or above 7?
Ans. t

Qu. In plain terms: is recorded pIC50 at least 7 for Cc1nn(C)cc1-c1nc(N2CCOCC2)c2nc(C(=O)N3CCN(C(C)(C)C(N)=O)CC3)[nH]c2n1 [compound 8] ?
Ans. t

Qu. Could you tell me if the measured pIC50 of Cc1nn(C)cc1-c1nc2[nH]c(C(=O)N3CCC(N4CCOCC4)CC3)nc2c(N2CCOCC2)c1C [compound 89] reaches 7 or more?
Ans. t

Qu. Determine whether measured pIC50 meets or exceeds 7 for CCn1c(C(=O)N2CCC(N3CCOCC3)CC2)nc2c(N3CCOCC3)nc(-c3cnn(C)c3)nc21 [compound 22]
Ans. f

Qu. Can CCOC(=O)CC1CCN(C(=O)c2nc3c(N4CCOCC4)nc(-c4cnn(C)c4)nc3[nH]2)CC1 [compound 51] be said to have pIC50 at or above 7?
Ans. t

# credit: patent US10174035B2
